Biological target: human serum albumin (HSA) (Homo sapiens)
Sequence (P02768 25-609): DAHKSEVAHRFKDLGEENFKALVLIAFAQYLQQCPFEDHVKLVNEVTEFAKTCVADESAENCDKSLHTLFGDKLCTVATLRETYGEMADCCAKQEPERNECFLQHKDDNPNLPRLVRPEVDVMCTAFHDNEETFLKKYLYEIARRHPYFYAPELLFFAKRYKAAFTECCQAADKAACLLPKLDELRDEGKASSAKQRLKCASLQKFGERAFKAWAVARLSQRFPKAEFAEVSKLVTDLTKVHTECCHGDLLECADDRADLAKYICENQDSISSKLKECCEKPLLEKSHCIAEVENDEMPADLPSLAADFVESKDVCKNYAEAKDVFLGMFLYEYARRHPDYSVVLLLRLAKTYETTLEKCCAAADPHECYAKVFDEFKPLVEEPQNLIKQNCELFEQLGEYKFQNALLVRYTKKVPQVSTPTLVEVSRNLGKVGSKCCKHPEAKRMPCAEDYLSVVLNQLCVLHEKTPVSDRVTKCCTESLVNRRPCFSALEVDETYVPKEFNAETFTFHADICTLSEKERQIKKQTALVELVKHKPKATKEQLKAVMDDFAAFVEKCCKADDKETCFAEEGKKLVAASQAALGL
Test: Albumin binding fluorimetric assay, HSA
Details: fluorescence quenching, 10 μM HSA
MEASURED ENDPOINT: pKd
A value of pKd is the negative decimal logarithm of a concentration given in moles per litre.

Before answering, review these 3 worked examples.
compound="O=C(O)c1ccc(-c2ccc(/C=C3\\SC(=S)N(CCCc4ccccc4)C3=O)o2)cc1O [Compound 9c]" observed=5.92
compound="O=C(O)c1ccc(-c2ccc(/C=C3\\SC(=S)N(Cc4ccc(F)cc4)C3=O)o2)cc1O [Compound 1]" observed=6.20
compound="O=C(O)c1ccc(-c2ccc(/C=C3\\SC(=S)N(CCc4ccc(F)cc4)C3=O)o2)cc1O [Compound 9a]" observed=5.82

Proceed to the following item.
Query block: Entry CCc1ccc(CCN2C(=O)/C(=C/c3ccc(-c4ccc(C(=O)O)c(O)c4)o3)SC2=S)cc1 [Compound 9d] needs its pKd filled in; supply it.
Result block: 5.96

* * *

System: HIV-1 AD8 (CCR5-tropic strain)
Assay: Antiviral activity on TZM-bl cells infected with HIV-1 AD8 (CPRG assay)
Assay type: cell-based
Conditions: Human immunodeficiency virus 1, TZM-bl, read-out: AD8 EC50
MEASURED ENDPOINT: EC50 (nM)
Just the number in nM, nothing appended.

Query block: Entry Cc1nnc(C(=O)NC(C)(C)c2nc(C(=O)NCc3ccc(F)cc3)c(O)c(=O)n2C)o1 [RAL, raltegravir, reference compound] needs its EC50 filled in; supply it.
Result block: 6.5

* * *

Test system: HIV-1 NL4.3 (CXCR4-tropic strain)
Assay: Antiviral activity on TZM-bl cells infected with HIV-1 NL4.3 (CPRG assay)
Assay type: cell-based
Settings: Human immunodeficiency virus 1, NL43, TZM-bl, TZM-bl cells; pre-incubation with virus without serum; read-out: NL4-3 EC50
Method: After 48 h of incubation, the medium was removed and viral infection was quantified using a β-galactosidase (CPRG) assay (Roche). Twenty thousand TZM-bl cells/well were seeded in 96-well plates in complete DMEM supplemented with 30 μg/mL DEAE-dextran (Sigma-Aldrich). […] Vehicle (0.1% dimethyl sulfoxide [DMSO])-treated cells served as a negative control. […] After 2 days, viral infection was quantified using a CPRG assay (Roche). […]
Please assign n whenever EC50 is at or above 0.02 µM, and y whenever it is below.

Query block: Consider O=C(O)c1ccc(-c2ccc(/C=C3\SC(=S)N(Cc4ccc(Cl)cc4)C3=O)o2)cc1O [Compound 2] . Does its EC50 lie strictly below 0.02 µM?
Result block: y

Query block: Consider O=C(O)c1ccc(-c2ccc(/C=C3\SC(=S)N(Cc4ccc(Cl)c(F)c4)C3=O)o2)cc1O [Compound 9f] . Does its EC50 lie strictly below 0.02 µM?
Result block: y

Query block: Consider Cc1ccc(CCN2C(=O)/C(=C/c3ccc(-c4ccc(C(=O)O)c(O)c4)o3)SC2=S)cc1 [Compound 9b] . Does its EC50 lie strictly below 0.02 µM?
Result block: n

Query block: Consider O=C(O)c1ccc(-c2ccc(/C=C3\SC(=S)N(CCCc4ccccc4)C3=O)o2)cc1O [Compound 9c] . Does its EC50 lie strictly below 0.02 µM?
Result block: y

Query block: Consider CCc1ccc(CCN2C(=O)/C(=C/c3ccc(-c4ccc(C(=O)O)c(O)c4)o3)SC2=S)cc1 [Compound 9d] . Does its EC50 lie strictly below 0.02 µM?
Result block: n

Query block: Consider O=C(O)c1ccc(-c2ccc(/C=C3\SC(=S)N(CCc4ccc(F)cc4)C3=O)o2)cc1O [Compound 9a] . Does its EC50 lie strictly below 0.02 µM?
Result block: y

Query block: Consider O=C(O)c1ccc(-c2ccc(/C=C3\SC(=S)N(c4ccc(F)c(Cl)c4)C3=O)o2)cc1O [Compound 9e] . Does its EC50 lie strictly below 0.02 µM?
Result block: n
